Every entry's value here was drawn from paper PMC11643554.

- PROTOCOL_DESCRIPTION: BALB 3T3 Neutral Red Uptake safety test (cytotoxicity/phototoxicity)
- Assay type: cell-based, mouse
- CONDITION_SET: mouse, BALB 3T3 clone A31 embryonic fibroblasts, BALB 3T3, NRU, without irradiation, 24 h incubation, n = 6; read-out: Mean CC50 ± SD, −Irr
# CC50 at 24 h per record follows
Just the number in µM, nothing appended.

// worked examples, CC50 at 24 h included
{"COMPOUND": "CCOC(=O)c1cc(-c2ccc(Cl)cc2)n(C(Cc2ccccc2)C(=O)N/N=C/c2[nH]c(C(=O)OCC)c(C)c2C(=O)OCC)c1C (stereo not drawn) [Compound 1A]", "CC50 at 24 h (µM)": 3140}
{"COMPOUND": "CCOC(=O)c1cc(-c2ccc(Cl)cc2)n(C(Cc2ccccc2)C(=O)NN)c1C (stereo not drawn) [Compound 1]", "CC50 at 24 h (µM)": 52.3}
{"COMPOUND": "CCOC(=O)c1cc(-c2ccc(Cl)cc2)n(C(Cc2ccccc2)C(=O)N/N=C/c2[nH]c(C)c(C(=O)OCC)c2C)c1C (stereo not drawn) [Compound 1B]", "CC50 at 24 h (µM)": 2180}

Name the reported CC50 at 24 h value associated with the compound CN(C)CCCN1c2ccccc2Sc2ccc(Cl)cc21 [Chlorpromazine, reference compound] 65.8

State the recorded CC50 at 24 h for this entry: CCOC(=O)c1cc(-c2ccc(Cl)cc2)n(C(Cc2ccccc2)C(=O)N/N=C/c2c(C)[nH]c(C)c2C(=O)OCC)c1C (stereo not drawn) [Compound 1D] 3800

// lookup CC50 at 24 h for CCOC(=O)c1cc(-c2ccc(Cl)cc2)n(C(Cc2ccccc2)C(=O)N/N=C/c2c(C)[nH]c(C(=O)OCC)c2C)c1C (stereo not drawn) [Compound 1C] 1670

* * *

- System: human melanoma SH-4
- PROTOCOL_DESCRIPTION: Antiproliferative activity, MTT dye reduction assay, SH-4
- Assay type: cell-based
- CONDITION_SET: melanoma SH-4, MTT, 72 h, n = 6; read-out: Mean IC50 ± SD, SH-4
EXPERIMENTAL_READOUT: pIC50
Notebook: values listed as pIC50 are -log10 of the concentration (mol/L).

Record N.N.[Cl][Pt][Cl] [Cisplatin, reference compound] : what is its pIC50 with human melanoma SH-4? 4.64

* * *

Measured CC50 at 24 h accompanies every entry in the list below.
- PROTOCOL_DESCRIPTION: BALB 3T3 Neutral Red Uptake safety test (cytotoxicity/phototoxicity)
- Format: cell-based, mouse
- CONDITION_SET: mouse, BALB 3T3 clone A31 embryonic fibroblasts, BALB 3T3, NRU, irradiated with solar simulator 10 min (0.86 J), 24 h incubation, n = 6; read-out: Mean CC50 ± SD, +Irr
Express your answer in µM, writing the number without its unit.

Solved entries (count: 5):
{"COMPOUND": "CCOC(=O)c1cc(-c2ccc(Cl)cc2)n(C(Cc2ccccc2)C(=O)N/N=C/c2[nH]c(C(=O)OCC)c(C)c2C(=O)OCC)c1C (stereo not drawn) [Compound 1A]", "UNITS_TEXT": "µM", "CC50 at 24 h": 2840}
{"COMPOUND": "CCOC(=O)c1cc(-c2ccc(Cl)cc2)n(C(Cc2ccccc2)C(=O)N/N=C/c2[nH]c(C)c(C(=O)OCC)c2C)c1C (stereo not drawn) [Compound 1B]", "UNITS_TEXT": "µM", "CC50 at 24 h": 2270}
{"COMPOUND": "CN(C)CCCN1c2ccccc2Sc2ccc(Cl)cc21 [Chlorpromazine, reference compound]", "UNITS_TEXT": "µM", "CC50 at 24 h": 9.13}
{"COMPOUND": "CCOC(=O)c1cc(-c2ccc(Cl)cc2)n(C(Cc2ccccc2)C(=O)N/N=C/c2c(C)[nH]c(C)c2C(=O)OCC)c1C (stereo not drawn) [Compound 1D]", "UNITS_TEXT": "µM", "CC50 at 24 h": 3370}
{"COMPOUND": "CCOC(=O)c1cc(-c2ccc(Cl)cc2)n(C(Cc2ccccc2)C(=O)NN)c1C (stereo not drawn) [Compound 1]", "UNITS_TEXT": "µM", "CC50 at 24 h": 55.8}

I am curious: what CC50 at 24 h value has been reported for CCOC(=O)c1cc(-c2ccc(Cl)cc2)n(C(Cc2ccccc2)C(=O)N/N=C/c2c(C)[nH]c(C(=O)OCC)c2C)c1C (stereo not drawn) [Compound 1C] ? 1750
